// values below are reported pIC50
tested on: Androgen receptor (Homo sapiens, UniProt P10275)
pIC50: −log10 of the molar value.

compound smiles | pIC50
C[C@H]1Nc2cc3nc(O)cc(C(F)(F)F)c3cc2CC1(C)C | 7.62
CC(C)[C@@H]1CCc2cc3c(C(F)(F)F)cc(=O)[nH]c3cc2N1 | 7.60
CC[C@H]1Nc2cc3[nH]c(=O)cc(C(F)(F)F)c3cc2C[C@@H]1C | 7.96
CC[C@@H]1CCc2cc3c(C(F)(F)F)cc(O)nc3cc2N1 | 7.96
C[C@@H]1C[C@H](C)c2cc3c(C(F)(F)F)cc(O)nc3cc2N1 | 7.82
CC(C)(O)C(=O)Nc1ccc([N+](=O)[O-])c(C(F)(F)F)c1O | 7.82
CC[C@@H]1C[C@H](C)c2cc3c(C(F)(F)F)cc(O)nc3cc2N1 | 6.86
CCC[C@@H]1CCc2cc3c(C(F)(F)F)cc(O)nc3cc2N1 | 7.49
CC[C@H]1Nc2cc3[nH]c(=O)cc(C(F)(F)F)c3cc2CC1(C)C | 7.38
C[C@@H]1CCc2cc3c(C(F)(F)F)cc(=O)[nH]c3cc2N1 | 7.72
C[C@H]1Cc2cc3c(C(F)(F)F)cc(O)nc3cc2N[C@@H]1C | 7.48
CC[C@H]1Nc2cc3nc(O)cc(C(F)(F)F)c3cc2CC1(CC)CC | 7.32
CC[C@H]1Nc2cc3nc(O)cc(C(F)(F)F)c3cc2C[C@H]1C | 7.82
C[C@@H]1Cc2cc3c(C(F)(F)F)cc(O)nc3cc2N[C@@H]1C | 7.13

====

tested on: Androgen receptor (Homo sapiens)
Sequence (P10275 whole entry): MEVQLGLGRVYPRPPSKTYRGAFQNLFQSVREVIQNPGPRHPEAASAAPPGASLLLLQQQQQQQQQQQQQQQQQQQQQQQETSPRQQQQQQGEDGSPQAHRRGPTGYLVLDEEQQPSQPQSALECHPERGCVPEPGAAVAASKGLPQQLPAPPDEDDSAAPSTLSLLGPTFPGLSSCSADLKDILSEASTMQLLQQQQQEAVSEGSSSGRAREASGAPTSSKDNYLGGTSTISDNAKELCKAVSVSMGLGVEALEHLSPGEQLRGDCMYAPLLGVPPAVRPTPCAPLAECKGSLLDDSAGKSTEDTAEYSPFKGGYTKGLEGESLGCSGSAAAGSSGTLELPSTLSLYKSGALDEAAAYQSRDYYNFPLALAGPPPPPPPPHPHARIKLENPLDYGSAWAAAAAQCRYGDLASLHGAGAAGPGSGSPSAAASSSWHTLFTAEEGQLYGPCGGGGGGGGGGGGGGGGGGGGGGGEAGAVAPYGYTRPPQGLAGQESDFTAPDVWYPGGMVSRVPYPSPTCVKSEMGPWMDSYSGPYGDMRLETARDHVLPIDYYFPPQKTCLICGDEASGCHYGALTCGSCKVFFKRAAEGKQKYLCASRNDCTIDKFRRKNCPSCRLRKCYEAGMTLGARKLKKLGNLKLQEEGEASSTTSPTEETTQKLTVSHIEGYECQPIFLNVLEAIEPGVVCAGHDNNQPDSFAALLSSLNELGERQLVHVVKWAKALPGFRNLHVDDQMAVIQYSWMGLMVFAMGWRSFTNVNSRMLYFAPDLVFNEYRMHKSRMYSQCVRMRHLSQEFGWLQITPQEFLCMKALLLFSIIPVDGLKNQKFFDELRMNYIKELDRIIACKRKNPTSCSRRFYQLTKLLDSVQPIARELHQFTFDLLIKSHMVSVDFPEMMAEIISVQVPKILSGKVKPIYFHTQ
pKi: −log10 of the molar value.

compound smiles | pKi
CC[C@H]1Cc2cc3c(C(F)(F)F)cc(O)nc3cc2N[C@@H]1C | 7.96
C[C@H]1Cc2cc3c(C(F)(F)F)cc(O)nc3cc2N[C@@H]1C | 7.66
CC[C@@H]1Cc2cc3c(C(F)(F)F)cc(=O)[nH]c3cc2N[C@@H]1C | 7.82
C[C@H]1Nc2cc3nc(O)cc(C(F)(F)F)c3cc2CC1(C)C | 7.09
CC(C)(O)C(=O)Nc1ccc([N+](=O)[O-])c(C(F)(F)F)c1O | 7.57
C[C@@H]1CCc2cc3c(C(F)(F)F)cc(=O)[nH]c3cc2N1 | 8.15
C[C@@H]1C[C@H](C)c2cc3c(C(F)(F)F)cc(O)nc3cc2N1 | 8.22
CC[C@@H]1C[C@H](C)c2cc3c(C(F)(F)F)cc(O)nc3cc2N1 | 7.68
C[C@@H]1Cc2cc3c(C(F)(F)F)cc(O)nc3cc2N[C@@H]1C | 7.82
CC[C@H]1C[C@@H](C)Nc2cc3nc(O)cc(C(F)(F)F)c3cc21 | 7.64
CC[C@@H]1C[C@H](CC)c2cc3c(C(F)(F)F)cc(O)nc3cc2N1 | 8.05
CCC[C@@H]1CCc2cc3c(C(F)(F)F)cc(O)nc3cc2N1 | 7.62
CC[C@H]1Nc2cc3nc(O)cc(C(F)(F)F)c3cc2C[C@H]1C | 7.96
CC[C@H]1Cc2cc3c(C(F)(F)F)cc(=O)[nH]c3cc2N[C@@H]1CC | 7.80
CC[C@H]1Nc2cc3[nH]c(=O)cc(C(F)(F)F)c3cc2CC1(C)C | 7.30
CC[C@H]1Nc2cc3[nH]c(=O)cc(C(F)(F)F)c3cc2C[C@@H]1C | 7.92
CC(C)[C@@H]1CCc2cc3c(C(F)(F)F)cc(=O)[nH]c3cc2N1 | 6.96
CC[C@H]1Nc2cc3nc(O)cc(C(F)(F)F)c3cc2CC1(CC)CC | 7.38
CC[C@@H]1Cc2cc3c(C(F)(F)F)cc(=O)[nH]c3cc2N[C@@H]1CC | 7.54

====

The compounds below have reported pEC50 for Androgen receptor (Homo sapiens).
pEC50: −log10 of the molar value.
observation type: pEC50

compound smiles | tested on | numeric result
CC[C@@H]1C[C@H](C)c2cc3c(C(F)(F)F)cc(O)nc3cc2N1 | Androgen receptor (Homo sapiens) | 6.92
C[C@@H]1C[C@H](C)c2cc3c(C(F)(F)F)cc(O)nc3cc2N1 | Androgen receptor (Homo sapiens) | 7.23
CC[C@H]1Cc2cc3c(C(F)(F)F)cc(=O)[nH]c3cc2N[C@@H]1CC | Androgen receptor (Homo sapiens) | 8.52
C[C@@H]1CCc2cc3c(C(F)(F)F)cc(=O)[nH]c3cc2N1 | Androgen receptor (Homo sapiens) | 7.68
CC[C@@H]1C[C@H](CC)c2cc3c(C(F)(F)F)cc(O)nc3cc2N1 | Androgen receptor (Homo sapiens) | 7.49
CC[C@@H]1Cc2cc3c(C(F)(F)F)cc(=O)[nH]c3cc2N[C@@H]1CC | Androgen receptor (Homo sapiens) | 7.70
CC[C@H]1Nc2cc3[nH]c(=O)cc(C(F)(F)F)c3cc2C[C@@H]1C | Androgen receptor (Homo sapiens) | 5.78
CC[C@@H]1Cc2cc3c(C(F)(F)F)cc(=O)[nH]c3cc2N[C@@H]1C | Androgen receptor (Homo sapiens) | 8.00
C[C@@H]1Cc2cc3c(C(F)(F)F)cc(O)nc3cc2N[C@@H]1C | Androgen receptor (Homo sapiens) | 7.47
CC[C@H]1Nc2cc3nc(O)cc(C(F)(F)F)c3cc2C[C@H]1C | Androgen receptor (Homo sapiens) | 5.61
CC[C@H]1Cc2cc3c(C(F)(F)F)cc(O)nc3cc2N[C@@H]1C | Androgen receptor (Homo sapiens) | 8.05
CC[C@H]1C[C@@H](C)Nc2cc3nc(O)cc(C(F)(F)F)c3cc21 | Androgen receptor (Homo sapiens) | 7.18

====

Listed compounds paired with reported pIC50
tested on: Androgen receptor (Homo sapiens)
measurement description: Antagonistic activity against human androgen receptor (hAR) expressed in CV-1 cells; no data
Assay type: functional, cell-based
pIC50: −log10 of the molar value.

compound smiles | tested on | pIC50
CC[C@@H]1C[C@H](CC)c2cc3c(C(F)(F)F)cc(O)nc3cc2N1 | Androgen receptor (Homo sapiens) | > 5.00
CC[C@H]1C[C@@H](C)Nc2cc3nc(O)cc(C(F)(F)F)c3cc21 | Androgen receptor (Homo sapiens) | > 5.00

====

Known pEC50 of a selection of compounds
tested on: Androgen receptor (Homo sapiens)
condition set: cv-1
Description: Agonistic activity against human androgen receptor (hAR) expressed in CV-1 cell lines
pEC50: −log10 of the molar value.
observation type: pEC50

compound smiles | tested on | observation type | result
C[C@H]1Nc2cc3nc(O)cc(C(F)(F)F)c3cc2CC1(C)C | Androgen receptor (Homo sapiens) | pEC50 | > 5.00
CC[C@H]1Nc2cc3nc(O)cc(C(F)(F)F)c3cc2CC1(CC)CC | Androgen receptor (Homo sapiens) | pEC50 | > 5.00
CC[C@H]1Nc2cc3[nH]c(=O)cc(C(F)(F)F)c3cc2CC1(C)C | Androgen receptor (Homo sapiens) | pEC50 | > 5.00
